# Study target: Bifunctional dihydrofolate reductase-thymidylate synthase (Toxoplasma gondii, UniProt Q07422)
# Sequence (Q07422 whole entry): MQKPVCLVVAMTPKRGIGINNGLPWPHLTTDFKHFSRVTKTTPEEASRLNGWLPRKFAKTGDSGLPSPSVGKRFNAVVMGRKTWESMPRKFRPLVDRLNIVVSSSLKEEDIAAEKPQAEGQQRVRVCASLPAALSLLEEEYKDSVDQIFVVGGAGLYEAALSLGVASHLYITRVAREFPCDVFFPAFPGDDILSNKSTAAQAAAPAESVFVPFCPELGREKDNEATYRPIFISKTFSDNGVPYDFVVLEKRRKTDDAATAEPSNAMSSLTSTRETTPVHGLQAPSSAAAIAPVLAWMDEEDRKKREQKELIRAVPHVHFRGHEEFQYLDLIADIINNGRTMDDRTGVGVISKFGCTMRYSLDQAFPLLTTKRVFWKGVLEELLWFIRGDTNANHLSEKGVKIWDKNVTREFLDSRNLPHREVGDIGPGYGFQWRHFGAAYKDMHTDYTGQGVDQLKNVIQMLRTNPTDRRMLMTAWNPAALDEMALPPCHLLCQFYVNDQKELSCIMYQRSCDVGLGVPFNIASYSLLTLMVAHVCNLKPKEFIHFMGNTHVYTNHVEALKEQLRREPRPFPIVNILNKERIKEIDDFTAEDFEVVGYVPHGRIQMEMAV
Quantity measured: IC50

Hi! Can you tell me IC50 for each of these compounds?
1. Nc1nc(N)c2c(CNc3cc(Cl)ccc3Cl)coc2n1
2. COc1cccc(NCc2coc3nc(N)nc(N)c23)c1
3. Nc1nc(N)c2c(CNc3ccccc3Oc3ccccc3)coc2n1
4. CN(Cc1coc2nc(N)nc(N)c12)c1ccc(Cl)c(Cl)c1
5. Nc1nc(N)c2c(CNc3ccc(Oc4ccccc4)cc3)coc2n1
6. Nc1nc(N)c2c(CNc3ccc4ccccc4c3)coc2n1
7. Nc1nc(N)c2c(CSc3ccccc3)coc2n1

> 47 µM
> 31.3 µM
> 12 µM
> 27 µM
32.4 µM
38 µM
> 26 µM

Record summary for COc1ccc(OC)c(N(C)Cc2coc3nc(N)nc(N)c23)c1 : reported IC50 = > 27 µM

###

Could you please report measured IC50 for the items listed next?
Protein target, amino acids: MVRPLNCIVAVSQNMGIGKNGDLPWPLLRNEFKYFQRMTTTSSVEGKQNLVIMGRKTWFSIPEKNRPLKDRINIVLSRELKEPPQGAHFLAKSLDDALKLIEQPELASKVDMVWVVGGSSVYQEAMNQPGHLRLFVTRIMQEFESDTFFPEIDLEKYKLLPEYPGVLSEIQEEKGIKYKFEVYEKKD

Field: example entries. Status: answers known.
Structure as smiles	Recorded result
Nc1nc(N)c2c(CNc3ccccc3-c3ccccc3)coc2n1	137 µM
COc1cccc(NCc2coc3nc(N)nc(N)c23)c1	> 31.3 µM
CN(Cc1coc2nc(N)nc(N)c12)c1ccc(Cl)c(Cl)c1	> 27 µM

Next compound, IC50 to be filled in.
Record summary for Nc1nc(N)c2c(CNc3ccc4ccccc4c3)coc2n1 : reported IC50 = 36.5 µM

###

Could you please report measured pIC50 for the items listed next?
# Study target: Dihydrofolate reductase (Pneumocystis carinii, UniProt P16184)
# Sequence (P16184 whole entry): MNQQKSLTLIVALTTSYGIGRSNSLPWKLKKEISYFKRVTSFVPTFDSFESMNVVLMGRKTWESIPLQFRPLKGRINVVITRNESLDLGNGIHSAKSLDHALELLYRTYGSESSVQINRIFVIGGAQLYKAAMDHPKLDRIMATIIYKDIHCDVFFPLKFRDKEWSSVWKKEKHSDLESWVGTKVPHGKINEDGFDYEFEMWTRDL
pIC50: −log10 of the molar value.

Field: example entries. Status: answers known.
Structure as smiles	Study target	Quantity measured	Recorded result
Nc1nc(N)c2c(CSc3ccccc3)coc2n1	Dihydrofolate reductase (Pneumocystis carinii, UniProt P16184)	pIC50	< 4.59
Nc1nc(N)c2c(CNc3ccccc3Oc3ccccc3)coc2n1	Dihydrofolate reductase (Pneumocystis carinii, UniProt P16184)	pIC50	< 4.92
COc1cccc(NCc2coc3nc(N)nc(N)c23)c1	Dihydrofolate reductase (Pneumocystis carinii, UniProt P16184)	pIC50	< 4.50

Next compound, pIC50 to be filled in.
Record summary for COc1ccc(OC)c(N(C)Cc2coc3nc(N)nc(N)c23)c1 : reported pIC50 = < 4.57
